Test system: Escherichia coli IAI1
Test: fold change of Cadaverine concentration vs plate DMSO controls (fold change (ratio)); higher = more amine produced, active = hit call of the paper (significant change in both replicates, either direction)
Conditions: incubation time: 27 h, anaerobic, 37 °C
Reported Property: fold change of Cadaverine concentration
API doc: respond with a numeric literal and nothing else, no unit.

Compound	Reported Property	Meas Value
COCCCOc1cc(C[C@@H](C[C@H](N)[C@@H](O)C[C@H](C(=O)NCC(C)(C)C(N)=O)C(C)C)C(C)C)ccc1OC [Aliskiren hemifumarate] (20 µM)	fold change of Cadaverine concentration	1

What does the data say about its fold change of Cadaverine concentration? Entry: Cc1c(O)c(=O)ccn1C [Deferiprone] (20 µM)
1.03

What does the data say about its fold change of Cadaverine concentration? Entry: O=C1[C@@H]2[C@H]3CC[C@H](C3)[C@@H]2C(=O)N1CCCCN1CCN(c2ncccn2)CC1 [Tandospirone] (20 µM)
1

What does the data say about its fold change of Cadaverine concentration? Entry: CCC1(c2ccccc2)NC(=O)N(C)C1=O (configuration not stated) [Mephenytoin] (20 µM)
1.01

What does the data say about its fold change of Cadaverine concentration? Entry: Nc1nc2c(ncn2COC(CO)CO)c(=O)[nH]1 [Ganciclovir] (20 µM)
1.03

What does the data say about its fold change of Cadaverine concentration? Entry: CC(=O)OCC(=O)[C@@]1(O)CC[C@H]2[C@@H]3CCC4=CC(=O)CC[C@]4(C)[C@@]3(F)[C@@H](O)C[C@@]21C [Fludrocortisone acetate] (20 µM)
1.02

What does the data say about its fold change of Cadaverine concentration? Entry: CN(CCCN1c2ccccc2CCc2ccccc21)CC(=O)c1ccc(Cl)cc1 [Lofepramine] (20 µM)
0.989

====

Parameter fold change of Histamine concentration: see the listing below.
System: Klebsiella aerogenes DSM 30053
Experiment: fold change of Histamine concentration vs plate DMSO controls (fold change (ratio)); higher = more amine produced, active = hit call of the paper (significant change in both replicates, either direction)
Conditions: incubation time: 27 h, anaerobic, 37 °C
Structures can show the parent of a compound that is named as a salt.
API doc: respond with a numeric literal and nothing else, no unit.

What does the data say about its fold change of Histamine concentration? Entry: O=C(NC1CCN(CCCCC2(C(=O)NCC(F)(F)F)c3ccccc3-c3ccccc32)CC1)c1ccccc1-c1ccc(C(F)(F)F)cc1 [Lomitapide] (20 µM)
0.938

What does the data say about its fold change of Histamine concentration? Entry: O=C(O)COCCN1CCN(C(c2ccccc2)c2ccc(Cl)cc2)CC1 (configuration not stated) [Cetirizine dihydrochloride] (20 µM)
0.94

What does the data say about its fold change of Histamine concentration? Entry: CC(=O)[C@H]1CC[C@H]2[C@@H]3CC=C4C[C@@H](O)CC[C@]4(C)[C@H]3CC[C@]12C [Pregnenolone] (20 µM)
1.06

What does the data say about its fold change of Histamine concentration? Entry: C[N+]1(C)CCC(=C(c2ccccc2)c2ccccc2)CC1 [Diphemanil methylsulfate] (20 µM)
0.94

What does the data say about its fold change of Histamine concentration? Entry: Cc1ccc(-c2ncc(Cl)cc2-c2ccc(S(C)(=O)=O)cc2)cn1 [Etoricoxib] (20 µM)
0.814

What does the data say about its fold change of Histamine concentration? Entry: CCCC(=O)N1CCCN(c2nc(N)c3cc(OC)c(OC)cc3n2)CC1 [Bunazosin hydrochloride] (20 µM)
1.04

What does the data say about its fold change of Histamine concentration? Entry: O=C(O)CNC(=O)c1ccccc1 [Hippuric acid] (20 µM)
1.03

====

Tested on: Escherichia coli IAI1
Assay: fold change of Cadaverine concentration vs plate DMSO controls (fold change (ratio)); higher = more amine produced, active = hit call of the paper (significant change in both replicates, either direction)
Conditions: incubation time: 27 h, anaerobic, 37 °C
Parameter fold change of Cadaverine concentration: see the listing below.

What does the data say about its fold change of Cadaverine concentration? Entry: Cc1ncc([N+](=O)[O-])n1CCO [Metronidazole] (20 µM)
0.997 (inactive)

====

Test system: Ruminococcus gnavus DSM 108212
Test: fold change of Tryptamine concentration vs plate DMSO controls (fold change (ratio)); higher = more amine produced, active = hit call of the paper (significant change in both replicates, either direction);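 for the amine columns active = adjusted P below 0.05 in both replicates with a change the same way and a mean fold change under 0.8 or over 1.25; inactive = the rest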
Settings: incubation time: 27 h, anaerobic, 37 °C
// classify into active, inactive

The examples below pair each entry with its known result.
Compound	Class
COc1ccc(C2CNC(=O)C2)cc1OC1CCCC1 (stereo unspecified) [Rolipram] (20 µM)	inactive
CC[N+](C)(C)c1cccc(O)c1 [Edrophonium chloride] (20 µM)	inactive

Just curious, what result did Cn1c([N+](=O)[O-])cnc1COC(N)=O [Ronidazole] (20 µM) get here?
active

Just curious, what result did CC[N+](C)(CC)CCOC(=O)C1c2ccccc2Oc2ccccc21 [Methantheline bromide] (20 µM) get here?
inactive

Just curious, what result did C=CCOC(Cn1ccnc1)c1ccc(Cl)cc1Cl (stereo unspecified) (20 µM) get here?
inactive

Just curious, what result did O=C(O)CNC(=O)c1ccccc1 [Hippuric acid] (20 µM) get here?
inactive

====

Tested on: Klebsiella aerogenes DSM 30053
Assay: fold change of Cadaverine concentration vs plate DMSO controls (fold change (ratio)); higher = more amine produced, active = hit call of the paper (significant change in both replicates, either direction)
Settings: incubation time: 27 h, anaerobic, 37 °C
Where a name gives a salt, the structure may show the parent alone.
Reported Property: fold change of Cadaverine concentration
API doc: respond with a numeric literal and nothing else, no unit.

Molecule	fold change of Cadaverine concentration
O=C(CCCN1CCN(c2ccccn2)CC1)c1ccc(F)cc1 [Azaperone] (20 µM)	1.01
C[C@]12C=CC(=O)C=C1CC[C@@H]1[C@@H]2C(=O)C[C@@]2(C)[C@H]1CC[C@]2(O)C(=O)CO [Prednisone] (20 µM)	1.02
C[C@]12CC[C@@H]3c4ccc(O)cc4C[C@@H](CCCCCCCCC[S+]([O-])CCCC(F)(F)C(F)(F)F)[C@H]3[C@@H]1CC[C@@H]2O (stereo partly drawn) [Fulvestrant] (20 µM)	1.02
CN(C)CCC[C@@]1(c2ccc(F)cc2)OCc2cc(C#N)ccc21 [Escitalopram oxalate] (20 µM)	1.02
CCN(CC)CCNc1ccc(CO)c2sc3ccccc3c(=O)c12 [Hycanthone] (20 µM)	1.01

Record Nc1nc2[nH]cnc2c(=S)[nH]1 [Tioguanine] (20 µM) : what is its fold change of Cadaverine concentration with Klebsiella aerogenes DSM 30053?
0.998

Record CN1C(C(=O)Nc2ccccn2)=C(O)c2ccccc2S1(=O)=O [Piroxicam] (20 µM) : what is its fold change of Cadaverine concentration with Klebsiella aerogenes DSM 30053?
1.04

Record O=C1c2cccc(O)c2C(=O)c2c(O)cccc21 [Danthron] (20 µM) : what is its fold change of Cadaverine concentration with Klebsiella aerogenes DSM 30053?
1.01

====

System: Ruminococcus gnavus DSM 108212
Assay: growth (OD595) fold change vs plate DMSO controls (fold change (ratio)); higher = more growth
Details: incubation time: 27 h, anaerobic, 37 °C
Where a name gives a salt, the structure may show the parent alone.
Reported Property: growth
API doc: respond with a numeric literal and nothing else, no unit.

What does the data say about its growth? Entry: CN[C@@H]1[C@@H](O)[C@@H](O[C@@H]2[C@@H](O)[C@H](O[C@H]3OC(CN)=CC[C@H]3N)[C@@H](N)C[C@H]2N)OC[C@]1(C)O [Sisomicin sulfate] (20 µM)
0.942

====

System: Clostridium sporogenes DSM 1664
Experiment: fold change of Tryptamine concentration vs plate DMSO controls (fold change (ratio)); higher = more amine produced, active = hit call of the paper (significant change in both replicates, either direction);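 for the amine columns active = adjusted P below 0.05 in both replicates with a change the same way and a mean fold change under 0.8 or over 1.25; inactive = the rest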
Conditions: incubation time: 27 h, anaerobic, 37 °C
Where a name gives a salt, the structure may show the parent alone.
// classify into active, inactive

Just curious, what result did N[C@@H](C(=O)N[C@@H]1C(=O)N2C(C(=O)O)=C(Cl)CS[C@H]12)c1ccccc1 [Cefaclor hydrate] (20 µM) get here?
inactive

Just curious, what result did CNCC[C@@H](Oc1ccccc1C)c1ccccc1 [Tomoxetine hydrochloride] (20 µM) get here?
inactive

Just curious, what result did O=C(O)Cc1csc(-c2ccc(Cl)cc2)n1 [Fenclozic acid] (20 µM) get here?
inactive

====

Parameter fold change of Putrescine concentration: see the listing below.
Test system: Klebsiella aerogenes DSM 30053
Assay: fold change of Putrescine concentration vs plate DMSO controls (fold change (ratio)); higher = more amine produced, active = hit call of the paper (significant change in both replicates, either direction)
Details: incubation time: 27 h, anaerobic, 37 °C
Counter-ions that a name gives are not always drawn.
API doc: respond with a numeric literal and nothing else, no unit.

// known answers, use as guide
Compound	fold change of Putrescine concentration
CCOC(=O)C(C)(N)Cc1cc(I)c(Oc2cc(I)c(O)c(I)c2)c(I)c1 (stereo unspecified) [Etiroxate hydrochloride] (20 µM)	0.99
CN1CCCN(C(c2ccccc2)c2ccc(Cl)cc2)CC1 (stereo unspecified) [Homochlorcyclizine dihydrochloride] (20 µM)	1.01
CCN(CC)CCCC(C)Nc1c2ccc(Cl)cc2nc2ccc(OC)cc12 (stereo unspecified) [Quinacrine dihydrochloride hydrate] (20 µM)	0.928

What does the data say about its fold change of Putrescine concentration? Entry: NC(N)=Nc1nc(CSCC/C(N)=N/S(N)(=O)=O)cs1 [Famotidine] (20 µM)
0.999

What does the data say about its fold change of Putrescine concentration? Entry: NC[C@@H]1O[C@H](O[C@H]2[C@@H](O)[C@H](O[C@@H]3[C@@H](O)[C@H](N)C[C@H](N)[C@H]3O[C@H]3O[C@H](CN)[C@@H](O)[C@H](O)[C@H]3N)O[C@@H]2CO)[C@H](N)[C@@H](O)[C@@H]1O [Neomycin sulfate] (20 µM)
0.966

What does the data say about its fold change of Putrescine concentration? Entry: CC[N+](C)(CC)CCC[n+]1c(-c2ccccc2)c2cc(N)ccc2c2ccc(N)cc21 [Propidium iodide] (20 µM)
1

Values were extracted from the supplement of paper PMC12494721.
